# protocolDetails: self-splicing fitness, log relative to wild type (ln ratio); higher = more splicing; Tetrahymena group I intron in knt gene, E. coli kanamycin selection, DiMSum; sequences stand for … in CUCUCU…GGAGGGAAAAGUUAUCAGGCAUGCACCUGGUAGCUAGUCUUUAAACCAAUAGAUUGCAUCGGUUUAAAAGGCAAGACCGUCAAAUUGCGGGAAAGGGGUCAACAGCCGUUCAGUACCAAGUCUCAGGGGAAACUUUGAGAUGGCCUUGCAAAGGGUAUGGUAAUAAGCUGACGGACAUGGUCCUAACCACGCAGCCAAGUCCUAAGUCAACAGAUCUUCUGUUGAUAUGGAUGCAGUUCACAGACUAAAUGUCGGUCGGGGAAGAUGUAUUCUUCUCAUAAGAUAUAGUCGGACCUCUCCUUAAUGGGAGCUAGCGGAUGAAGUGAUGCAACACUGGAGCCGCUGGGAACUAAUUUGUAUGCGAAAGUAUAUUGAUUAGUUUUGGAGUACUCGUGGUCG;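 further: selection with 25 µg/mL kanamycin versus none on LB agar overnight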
# assayContext: 30 °C
// Criterion not met strictly below -3 in self-splicing fitness (ln); Criterion met otherwise

Kindly determine if self-splicing fitness (ln) recorded for ACCUAGCAAUAUUACGGAUC is above or exactly -3.
Criterion met

Check if self-splicing fitness (ln) >= -3 (inclusive). Item: UUCUAGCAAUAUUACGAUGC
Criterion met

Does self-splicing fitness (ln) meet or surpass -3 for UACCAGCAAUAUUACGUGGC ?
Criterion not met

I'd appreciate it if you could say whether AAACAGCAAUAUUACGGCUA has self-splicing fitness (ln) at least equal to -3.
Criterion met

Decide: is the reported value of self-splicing fitness (ln) for UAGUAGCAAUAUUACGCUCU equal to or greater than -3?
Criterion met

In plain terms: is recorded self-splicing fitness (ln) at least -3 for GAACAGCAAUAUUACGCCCC ?
Criterion met

Please tell me: is the sequence AUGUAGCAAUAUUACGGUAC at or over -3 in terms of self-splicing fitness (ln)?
Criterion not met

Can CUCCAGCAAUAUUACGUGUU be said to have self-splicing fitness (ln) at or above -3?
Criterion not met

These data points were gathered from the supplement of paper PMC7877785.
